Source of measurements: PubChem BioAssay

ASSAY_EXPLANATION: cytotoxicity in PAX8-dependent RMG-1 cells, dose response, cell-based, cherry-pick (AID 687029);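 note: cells exposed to compound for 96 hours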
EXPERIMENTAL_CONDITIONS: RMG-1 viability, CellTiterGlo ATP luminescence, 96 h; series mostly up to 35 µM
Potency and affinity values are given separately. The source made the active and inactive calls.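 Rule for the calls: active = signal drop whose fitted half-maximal concentration is at most twice the top valid dose, in every test run; inconclusive = mixed calls across runs, poor fit, or flat 30 to 70% inhibition; inactive = wrong direction, flat within 30%, or potency beyond limit.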
REPORTED_METRIC: activity change, negative = inhibition

C[C@@H]1CCCCO[C@@H](CN(C)Cc2ccc(Cl)c(Cl)c2)[C@H](C)CN([C@@H](C)CO)C(=O)c2cc(NS(=O)(=O)c3ccc(Cl)cc3)ccc2O1    inactive
COc1ccc(-c2cc(CNc3nc(NC(C)C)nc4cc(-c5ccccc5)sc34)on2)cc1    inactive
COc1ccc(S(=O)(=O)Nc2ccc3c(c2)C(=O)N([C@@H](C)CO)C[C@H](C)[C@@H](CN(C)C(=O)Nc2ccc(C(F)(F)F)cc2)OCCCC[C@@H](C)O3)cc1    inactive
O=C(C[C@@H]1C/C=C/CC[C@H](Cc2ccc(F)cc2)C(=O)OC[C@@H](Cc2ccccc2)NC1=O)N[C@H](CO)Cc1ccccc1    inactive

====

Tested on: wheat germ agglutinin (Triticum aestivum), Alexa647-labelled
ASSAY_EXPLANATION: wheat germ agglutinin binders on compound microarrays, profiling panel, artefact control for SMM control-protein annotation, biochemical, small-molecule microarray, 635/667 nm fluorescence (AID 1140);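 note: score merges 667 nm feature emission with signal to noise over triplicate slides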
EXPERIMENTAL_CONDITIONS: WGA-A647 binding, 635 nm fluorescence, higher = more signal
Entry flag: MET if composite z-score reaches -1; NOT MET if it does not.

Worked examples, 5 molecules total:
O=C1N(CCS(=O)(=O)c2ccccc2)Cc2ccccc2[C@@H]2OC(c3ccc(OCCCO)cc3)=N[C@]12Cc1ccccc1    MET
C=C(C1=CCN(S(=O)(=O)c2ccc(C)cc2)C1)[C@@H](OC(C)=O)[C@@H]1CCCN1S(=O)(=O)c1ccccc1[N+](=O)[O-]    NOT MET
CC1CC/C=C\[C@H]2OC34C=CCN(C(C)C)C(=O)[C@H]3N(C(CO)C(C)C)C(=O)[C@@H]4C2C(=O)O1 (some centres not stated)    NOT MET
COc1ccc(CCNC(=O)[C@@]2(Sc3ccc(C)cc3)CC(=O)N(Cc3ccccc3)[C@@H]2c2ccc(CO)cc2I)cc1    MET
O=C(NCC(F)(F)F)[C@@H]1c2ccccc2C(=O)N(C2Cc3ccccc3C2)[C@H]1c1ccc(CO)cc1    NOT MET

Prompt: Test whether the molecule COc1ccc(C(=O)Nc2cccc(CN3C(=O)[C@@]4(O[C@@H](CCO)[C@H]([Si](C)(C)c5ccc(OC)cc5)[C@H]4C)c4ccccc43)c2)cc1 records composite z-score of -1 or higher.
Completion: MET

Prompt: Test whether the molecule C=C1C=C(Br)C2(OCCCO2)[C@H]2OC12 (some centres not stated) records composite z-score of -1 or higher.
Completion: MET

====

ASSAY_EXPLANATION: MM1S myeloma cell viability, profiling panel, resazurin fluorescence, basal, 24 h, PK04 Diversity Set (AID 1174);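 note: MM1S multiple myeloma cell line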
EXPERIMENTAL_CONDITIONS: higher = more signal, called active from +8 up or from −8 down
Entry flag: Y if z-score reaches -0.5; N if it does not.

Worked examples, 3 compounds total:
COc1ccc(C#Cc2ccc3c(c2)[C@]2(C(=O)N3)[C@H](c3ccc(O)cc3)N3[C@H](c4ccccc4)[C@H](c4ccccc4)OC(=O)[C@H]3[C@@H]2C(=O)N2CCN(c3ncccn3)CC2)cc1    Y
C=C(COC)/C(=C/C[C@H](OC(C)=O)c1cccc(OCCO)c1)c1cc(C(=O)OC)ccc1OC    Y
O=C1N(CCS(=O)(=O)c2ccccc2)Cc2ccccc2[C@@H]2OC(c3ccc(OCCCO)cc3)=N[C@]12Cc1ccccc1    N

Prompt: Test whether the compound C=CCNC(=O)[C@H]1[C@@H]2C(=O)O[C@@H](c3ccccc3)[C@@H](c3ccccc3)N2[C@@H](c2ccc(OCCO)cc2)[C@]12C(=O)Nc1ccc(C#CCCO)cc12 records z-score of -0.5 or higher.
Completion: Y

Prompt: Test whether the compound COCCCNC(=O)[C@@]1(C)c2ccccc2C(=O)N(Cc2cc(F)cc(C(F)(F)F)c2)[C@H]1c1ccc(CO)cc1 records z-score of -0.5 or higher.
Completion: Y

Prompt: Test whether the compound [N-]=[N+]=NCc1ccccc1C[C@]1(C(=O)NCc2ccccc2)N=C(c2ccc(OCCCO)cc2)O[C@H]1c1ccccc1 records z-score of -0.5 or higher.
Completion: Y

Prompt: Test whether the compound O=C(NCc1ccccc1)[C@@H]1c2ccccc2C(=O)N(Cc2ccccc2Cl)[C@H]1c1ccc(CO)cc1 records z-score of -0.5 or higher.
Completion: Y

Prompt: Test whether the compound O=c1n(-c2ccccc2)c(=O)n2n1CC(COc1ccccc1)=C1[C@@H](CCc3ccccc3)OB(O)C[C@@H]12 records z-score of -0.5 or higher.
Completion: N

Prompt: Test whether the compound C=C(/C(=C/C[C@H](OC(=O)c1ccncc1)c1cccc(OCCO)c1)c1cc(C(=O)OC)ccc1OC)C(C)C records z-score of -0.5 or higher.
Completion: Y

Prompt: Test whether the compound C=CCC(OC(C)=O)[C@@H]1[C@@H](N(Cc2ccc(-c3cccc(C(F)(F)F)c3)o2)C(=O)c2ccc(-c3ccccc3)cc2)c2cc(OCCCO)ccc2N1C(=O)Cc1ccc(OC)cc1 (some centres undefined) records z-score of -0.5 or higher.
Completion: Y

Prompt: Test whether the compound O=C(N1CCCCC1)[C@@]1(Cc2ccccc2)N=C(c2ccc(OCCCO)cc2)O[C@H]1c1ccccc1 records z-score of -0.5 or higher.
Completion: N

Prompt: Test whether the compound [N-]=[N+]=NCc1ccccc1C[C@@]1(C(=O)NCc2ccccc2)N=C(c2ccc(OCCCO)cc2)O[C@@H]1c1ccccc1 records z-score of -0.5 or higher.
Completion: N

Prompt: Test whether the compound C=C(C(=O)CC[C@@H](OC(C)=O)c1ccccc1OCCO)C(C)C records z-score of -0.5 or higher.
Completion: Y

Prompt: Test whether the compound CO[C@H]1O[C@H](CO)[C@@H](OC(=O)Nc2ccccc2)[C@H](OC(=O)Nc2ccc3c(c2)OCO3)[C@H]1OC(=O)Nc1ccc2c(c1)OCO2 records z-score of -0.5 or higher.
Completion: N
